Target: SARS-CoV-2 spike (S) glycoprotein on virus (neutralization assays) (SARS-CoV-2, UniProt P0DTC2 14-1273)
Assay: cell-based or functional assay
Catalogue of SARS-CoV-2 focus reduction test, IC50 readings, one per entry.
Reply with just the number (in µg/mL).

Consider the reported SARS-CoV-2 focus reduction test, IC50 for these binders:
1) COV2-2391 (antibody, V domains shown) VH: QVQLVQSGAEVKKPGASVKVSCKASGYTFGSFDINWVRQATGQGLEWMGRMNSNSGNTAYAQKFQGRVTMTRDTSTNTAYMELSSLRSEDTAMYYCARMRSGWPTHGRPDDFWGRGTLVTVSS VL: QSVLTQAPSASGTPGQRVTISCSGSNSNIGSYTINWYQQLPGTAPKLLIYGNDQRTSGVPDRFSGSKFGTSASLAISGLQSEDENNYYCAVWDDSLNGLVFGGGTKLTVL | 0.045
2) COV2-2094 (antibody, V domains shown) VH: EVQLVESGGGVVRPGGSLRLSCAASGFIFDDYDMTWVRQAPGKGLEWVSGINWNGGSTGYADSVKGRFTISRDNAKNSLYLQMNSLRAEDTALYHCAVIMSPIPRYSGYDWAGDAFDIWGQGTMVTVSS VL: SSELTQDPAVSVALGQTVRITCQGDSLRSYYASWYQQKPGQVPILVIYDKNNRPSGIPDRFSGSSSGNTASLTITGAQAEDEADYYCNSRDSSGNAVVFGGGTKLTVL | 0.151

Req: // fetch SARS-CoV-2 focus reduction test, IC50 given entry COV2-3025 (antibody, V domains shown) VH: EVQLVQSGPEVKKPGTSVKVSCKASGFTFMSSAVQWVRQARGQRLEWIGWIVIGSGNTNYAQKFQERVTITRDMSTSTAYMELSSLRSEDTAVYYCAAPYCSSISCNDGFDIWGQGTMVTVSS VL: EIVLTQSPGTLSLSPGERVTLSCRASQSVSSSYLAWYQQKPGQAPRLLIYGASSRATGIPDRFSGSGSGTDFTLTISRLEPEDFAVYYCQHYGSSRGWTFGQGTKVEIK
Resp: 0.031
